These measurements were taken from ChEMBL document CHEMBL1128444.

target: Monoamine transporters; serotonin & dopamine (Rattus norvegicus) (UniProt P31652+P23977); assay: Ratio of IC50 value against Serotonin transporter to that of dopamine transporter; format: protein assay
Sequence (P23977 whole entry, looked up): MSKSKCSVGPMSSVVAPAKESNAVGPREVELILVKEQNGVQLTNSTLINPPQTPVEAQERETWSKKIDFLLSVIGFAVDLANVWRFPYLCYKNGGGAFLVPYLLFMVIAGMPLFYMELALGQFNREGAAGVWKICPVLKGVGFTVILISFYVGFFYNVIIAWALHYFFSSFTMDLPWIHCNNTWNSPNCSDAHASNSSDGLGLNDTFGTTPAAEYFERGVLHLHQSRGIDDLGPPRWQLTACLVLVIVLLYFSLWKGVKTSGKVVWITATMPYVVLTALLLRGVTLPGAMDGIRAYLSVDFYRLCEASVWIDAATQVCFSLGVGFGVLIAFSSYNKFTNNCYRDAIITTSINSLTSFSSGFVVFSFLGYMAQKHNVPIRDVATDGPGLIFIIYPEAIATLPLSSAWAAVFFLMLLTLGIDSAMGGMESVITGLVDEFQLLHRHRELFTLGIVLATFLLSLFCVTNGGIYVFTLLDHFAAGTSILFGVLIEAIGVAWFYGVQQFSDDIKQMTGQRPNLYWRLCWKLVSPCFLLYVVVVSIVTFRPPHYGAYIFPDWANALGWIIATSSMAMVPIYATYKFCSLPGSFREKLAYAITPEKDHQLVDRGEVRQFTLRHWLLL
Sequence (P31652 whole entry, looked up): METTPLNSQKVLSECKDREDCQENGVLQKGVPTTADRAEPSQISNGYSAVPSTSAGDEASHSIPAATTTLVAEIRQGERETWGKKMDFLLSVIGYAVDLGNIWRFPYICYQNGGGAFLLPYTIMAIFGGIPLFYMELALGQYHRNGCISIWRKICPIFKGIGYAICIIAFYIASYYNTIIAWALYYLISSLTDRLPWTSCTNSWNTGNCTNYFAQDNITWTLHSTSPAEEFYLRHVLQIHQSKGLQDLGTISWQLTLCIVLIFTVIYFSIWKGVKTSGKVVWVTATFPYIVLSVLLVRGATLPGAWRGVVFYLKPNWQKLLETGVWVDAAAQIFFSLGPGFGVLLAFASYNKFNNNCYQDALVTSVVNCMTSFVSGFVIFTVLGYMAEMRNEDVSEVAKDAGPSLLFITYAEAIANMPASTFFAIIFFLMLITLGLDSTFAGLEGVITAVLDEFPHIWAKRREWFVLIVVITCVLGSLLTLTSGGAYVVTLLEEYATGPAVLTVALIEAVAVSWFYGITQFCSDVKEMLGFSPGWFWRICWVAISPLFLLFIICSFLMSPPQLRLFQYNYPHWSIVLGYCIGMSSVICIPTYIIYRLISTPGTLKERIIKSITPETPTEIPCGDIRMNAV

{"Compound": "COC(=O)C1C(c2ccc(N)c(I)c2)CC2CCC1N2C (stereo not given)", "Test system": "Monoamine transporters; serotonin & dopamine (Rattus norvegicus) (UniProt P31652+P23977)", "Qualifying sign": "=", "Ratio": 89}
{"Compound": "Cc1ccc(C2CC3CCC(C2C(=O)OC2CCC2)N3C)cc1 (stereo not given)", "Test system": "Monoamine transporters; serotonin & dopamine (Rattus norvegicus) (UniProt P31652+P23977)", "Qualifying sign": "=", "Ratio": 540}
{"Compound": "CN(C)C(=O)C1C(OC(=O)c2ccccc2)CC2CCC1N2C (stereo not given)", "Test system": "Monoamine transporters; serotonin & dopamine (Rattus norvegicus) (UniProt P31652+P23977)", "Qualifying sign": "=", "Ratio": 1130}
{"Compound": "CN(C(=O)C1C(c2ccc(Cl)cc2)CC2CCC1N2C)c1ccccc1 (stereo not given)", "Test system": "Monoamine transporters; serotonin & dopamine (Rattus norvegicus) (UniProt P31652+P23977)", "Qualifying sign": "=", "Ratio": 519}
{"Compound": "CONC(=O)C1C(c2ccc(Cl)cc2)CC2CCC1N2C (stereo not given)", "Test system": "Monoamine transporters; serotonin & dopamine (Rattus norvegicus) (UniProt P31652+P23977)", "Qualifying sign": "=", "Ratio": 4080}
{"Compound": "CON(C)C(=O)C1C(OC(=O)c2ccccc2)CC2CCC1N2C (stereo not given)", "Test system": "Monoamine transporters; serotonin & dopamine (Rattus norvegicus) (UniProt P31652+P23977)", "Qualifying sign": "=", "Ratio": 469}
{"Compound": "CN1C2CCC1C(C(=O)Oc1ccccc1)C(c1ccc(Cl)cc1)C2 (stereo not given)", "Test system": "Monoamine transporters; serotonin & dopamine (Rattus norvegicus) (UniProt P31652+P23977)", "Qualifying sign": "=", "Ratio": 1180}
{"Compound": "CN1C2CCC1C(C(=O)OCc1ccccc1)C(OC(=O)c1ccccc1)C2 (stereo not given)", "Test system": "Monoamine transporters; serotonin & dopamine (Rattus norvegicus) (UniProt P31652+P23977)", "Qualifying sign": "=", "Ratio": 1.2}
{"Compound": "CN1C2CCC1C(C(=O)OCCc1ccccc1)C(OC(=O)c1ccccc1)C2 (stereo not given)", "Test system": "Monoamine transporters; serotonin & dopamine (Rattus norvegicus) (UniProt P31652+P23977)", "Qualifying sign": "=", "Ratio": 3.4}
{"Compound": "Cc1ccccc1OC(=O)C1C(c2ccc(Cl)cc2)CC2CCC1N2C (stereo not given)", "Test system": "Monoamine transporters; serotonin & dopamine (Rattus norvegicus) (UniProt P31652+P23977)", "Qualifying sign": "=", "Ratio": 965}
{"Compound": "Cc1ccc(C2CC3CCC(C2C(=O)Oc2ccc(Cl)cc2)N3C)cc1 (stereo not given)", "Test system": "Monoamine transporters; serotonin & dopamine (Rattus norvegicus) (UniProt P31652+P23977)", "Qualifying sign": "=", "Ratio": 366}
{"Compound": "Cc1ccc(OC(=O)C2C(c3ccc(C)cc3)CC3CCC2N3C)cc1 (stereo not given)", "Test system": "Monoamine transporters; serotonin & dopamine (Rattus norvegicus) (UniProt P31652+P23977)", "Qualifying sign": "=", "Ratio": 197}
{"Compound": "Cc1ccc(C2CC3CCC(C2C(=O)N2CCOCC2)N3C)cc1 (stereo not given)", "Test system": "Monoamine transporters; serotonin & dopamine (Rattus norvegicus) (UniProt P31652+P23977)", "Qualifying sign": ">", "Ratio": 8550}
{"Compound": "CCC(CC)OC(=O)C1C(c2ccc(C)cc2)CC2CCC1N2C (stereo not given)", "Test system": "Monoamine transporters; serotonin & dopamine (Rattus norvegicus) (UniProt P31652+P23977)", "Qualifying sign": "=", "Ratio": 236}
{"Compound": "COC(=O)C1C(c2ccc(Cl)c(Cl)c2)CC2CCC1N2C (stereo not given)", "Test system": "Monoamine transporters; serotonin & dopamine (Rattus norvegicus) (UniProt P31652+P23977)", "Qualifying sign": "=", "Ratio": 4}
{"Compound": "Cc1ccc(C2CC3CCC(C2C(=O)Oc2ccccc2)N3C)cc1 (stereo not given)", "Test system": "Monoamine transporters; serotonin & dopamine (Rattus norvegicus) (UniProt P31652+P23977)", "Qualifying sign": "=", "Ratio": 7410}
{"Compound": "CCCOC(=O)C1C(OC(=O)c2ccccc2)CC2CCC1N2C (stereo not given)", "Test system": "Monoamine transporters; serotonin & dopamine (Rattus norvegicus) (UniProt P31652+P23977)", "Qualifying sign": "=", "Ratio": 23}
{"Compound": "Cc1ccc(C2CC3CCC(C2C(=O)OC2CC2)N3C)cc1 (stereo not given)", "Test system": "Monoamine transporters; serotonin & dopamine (Rattus norvegicus) (UniProt P31652+P23977)", "Qualifying sign": "=", "Ratio": 634}
{"Compound": "COC(=O)C1C(c2ccc(Cl)c(C)c2)CC2CCC1N2C (stereo not given)", "Test system": "Monoamine transporters; serotonin & dopamine (Rattus norvegicus) (UniProt P31652+P23977)", "Qualifying sign": "=", "Ratio": 13}
{"Compound": "CN1C2CCC1C(C(=O)N1CCCO1)C(c1ccc(Cl)cc1)C2 (stereo not given)", "Test system": "Monoamine transporters; serotonin & dopamine (Rattus norvegicus) (UniProt P31652+P23977)", "Qualifying sign": "=", "Ratio": 1680}
{"Compound": "Cc1ccc(C2CC3CCC(C2C(=O)Oc2cccc(C)c2)N3C)cc1 (stereo not given)", "Test system": "Monoamine transporters; serotonin & dopamine (Rattus norvegicus) (UniProt P31652+P23977)", "Qualifying sign": "=", "Ratio": 639}
{"Compound": "CN1[C@H]2CC[C@@H]1[C@@H](C(=O)N1CCCC1)[C@@H](c1ccc(I)cc1)C2", "Test system": "Monoamine transporters; serotonin & dopamine (Rattus norvegicus) (UniProt P31652+P23977)", "Qualifying sign": "=", "Ratio": 4670}
{"Compound": "CC(C)OC(=O)C1C(c2ccc(Cl)cc2)CC2CCC1N2C (stereo not given)", "Test system": "Monoamine transporters; serotonin & dopamine (Rattus norvegicus) (UniProt P31652+P23977)", "Qualifying sign": "=", "Ratio": 1000}
{"Compound": "CN1C2CCC1C(C(=O)OC1CC1)C(c1ccc(Cl)cc1)C2 (stereo not given)", "Test system": "Monoamine transporters; serotonin & dopamine (Rattus norvegicus) (UniProt P31652+P23977)", "Qualifying sign": "=", "Ratio": 175}
{"Compound": "CN1[C@H]2CC[C@@H]1[C@@H](C(=O)N1CCCC1)[C@@H](c1ccc(Cl)cc1)C2", "Test system": "Monoamine transporters; serotonin & dopamine (Rattus norvegicus) (UniProt P31652+P23977)", "Qualifying sign": "=", "Ratio": 8980}
{"Compound": "CON(C)C(=O)C1C(c2ccc(Cl)cc2)CC2CCC1N2C (stereo not given)", "Test system": "Monoamine transporters; serotonin & dopamine (Rattus norvegicus) (UniProt P31652+P23977)", "Qualifying sign": "=", "Ratio": 852}
{"Compound": "CNC(=O)C1C(c2ccc(Cl)cc2)CC2CCC1N2C (stereo not given)", "Test system": "Monoamine transporters; serotonin & dopamine (Rattus norvegicus) (UniProt P31652+P23977)", "Qualifying sign": "=", "Ratio": 106}
{"Compound": "Cc1cccc(OC(=O)C2C(c3ccc(Cl)cc3)CC3CCC2N3C)c1 (stereo not given)", "Test system": "Monoamine transporters; serotonin & dopamine (Rattus norvegicus) (UniProt P31652+P23977)", "Qualifying sign": "=", "Ratio": 230}
{"Compound": "COC(=O)C1C(c2ccc(Br)cc2)CC2CCC1N2C (stereo not given)", "Test system": "Monoamine transporters; serotonin & dopamine (Rattus norvegicus) (UniProt P31652+P23977)", "Qualifying sign": "=", "Ratio": 6}
{"Compound": "COc1ccc(OC(=O)C2C(c3ccc(Cl)cc3)CC3CCC2N3C)cc1 (stereo not given)", "Test system": "Monoamine transporters; serotonin & dopamine (Rattus norvegicus) (UniProt P31652+P23977)", "Qualifying sign": "=", "Ratio": 277}
